# ASSAY PROCEDURE: Water solubility in PBS
# Format: physicochemical
# CONDITION: PBS buffer, pH 7.4
REPORTED METRIC: solubility (µM)
Expressed in µM, but write only the number.

Query string: What does the record list as solubility for CCn1c(C(O)(c2ccccc2)c2ccccc2)nc2ccc(C(=O)NC[C@@H](C)O)cc21 [VY-3-135] ?
Result string: 21.7

Where do the numbers come from? From paper PMC8026699.
